assay: NCI Yeast Anticancer Drug Screen. Data for the rad50 strain (AID 155);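 further: 0% = growth of vehicle-only cultures of the same strain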; conditions: S. cerevisiae rad50 strain growth inhibition; at 50.0 µM; stronger effect = higher value
Compounds without any hit were thinned out: in the full panel of roughly 79,000, 15% have a hit.
Endpoint label: growth inhibition (%)
Field format: number, assumed %, no unit text.

Below: 8 compounds and their reported growth inhibition.
{"Compound": "CNC(=S)N(C1CCCCC1)C1CCCCC1", "Unit label": "%", "growth inhibition": 26}
{"Compound": "COc1cc([N+](=O)[O-])ccc1NC(=O)c1cccc([N+](=O)[O-])c1C(=O)O", "Unit label": "%", "growth inhibition": 5}
{"Compound": "Cc1cccc(C(O)c2ccccn2)c1O (stereo unspecified)", "Unit label": "%", "growth inhibition": -3.85}
{"Compound": "CC(=O)Nc1ccc(S(=O)(=O)O)nc1", "Unit label": "%", "growth inhibition": 0.45}
{"Compound": "CC(=O)[OH+]c1c(I)cc(I)cc1C(=O)[O-].CC(=O)[OH+]c1c(I)cc(I)cc1C(=O)[O-].[Cu+2]", "Unit label": "%", "growth inhibition": -8.15}
{"Compound": "C=C(C)[C@H]1C[C@@H](O)[C@H]2O[C@@]2(C)C1", "Unit label": "%", "growth inhibition": -8.05}
{"Compound": "COc1cc(Nc2nc3ccc(C(F)(F)F)cc3nc2-c2ccccc2)cc(OC)c1OC", "Unit label": "%", "growth inhibition": 0.05}
{"Compound": "CC(=O)Oc1ccc(C(c2ccccc2)c2ccccc2)c2ccccc12", "Unit label": "%", "growth inhibition": -9.8}

## Task Bench note: what growth inhibition did CC(=O)Cc1ccc2[nH]c(C)cc(=O)c2c1 show?
## Result -2.15

## Task Bench note: what growth inhibition did CCOC(=O)C(CCCOC1CCCCO1)(C(=O)OCC)c1ccccc1 (stereo unspecified) show?
## Result 21.4

## Task Bench note: what growth inhibition did CN(CCCn1ccnc1[N+](=O)[O-])CCCn1ccnc1[N+](=O)[O-] show?
## Result -28.1
